Measured property: logP

Cc1nc(N(C)C)nc(C(Cl)(Cl)Cl)n1 3.78
Cc1nc(NCc2ccccc2)nc(C(Cl)(Cl)Cl)n1 3.86
CCCNc1nc(C(Cl)(Cl)Cl)nc(C(Cl)(Cl)Cl)n1 4.09

(a) Nc1nc(C(Cl)(Cl)Cl)nc(C(Cl)(Cl)Cl)n1
(b) O=C1OC(=Nc2ccc(Cl)cc2)C2=C1CCCC2
Record comparison, field logP: mark the lower of a and b . Please respond with the label that marks your chosen entry.
a

###

Measured property: logP

CCCNc1nc(C)nc(C(Cl)(Cl)Cl)n1 3.29
CNc1nc(C)nc(C(Cl)(Cl)Cl)n1 2.39
Cc1nc(C(Cl)(Cl)Cl)nc(C(Cl)(Cl)Cl)n1 4.1
CN(C)c1nc(C(Cl)(Cl)Cl)nc(C(Cl)(Cl)Cl)n1 4.94
ClC(Cl)(Cl)c1nc(C(Cl)(Cl)Cl)nc(C(Cl)(Cl)Cl)n1 3.75

(I) COc1nc(N)nc(C(Cl)(Cl)Cl)n1
(II) ClC(Cl)(Cl)c1nc(NCc2ccccc2)nc(C(Cl)(Cl)Cl)n1
Hi, I'm comparing I with II and wondering which one has the bigger number for logP. Any idea? Answer with the label corresponding to your selection.
II

###

Measured property: logP

COc1nc(C(Cl)(Cl)Cl)nc(C(Cl)(Cl)Cl)n1 3.64
O=C1C2=C(CCCC2)C(=O)N1c1ccc(Cl)cc1 3.26
ClC(Cl)(Cl)c1nc(Nc2ccccc2)nc(C(Cl)(Cl)Cl)n1 4.39
CNc1nc(C(Cl)(Cl)Cl)nc(C(Cl)(Cl)Cl)n1 3.23
Cc1nc(Nc2ccccc2)nc(C(Cl)(Cl)Cl)n1 3.41
CSc1nc(N)nc(C(Cl)(Cl)Cl)n1 3.12
CSc1nc(C(Cl)(Cl)Cl)nc(C(Cl)(Cl)Cl)n1 4.42
Nc1nc(N)nc(C(Cl)(Cl)Cl)n1 1.24
Cc1nc(N)nc(C(Cl)(Cl)Cl)n1 1.77
